Tested on: 422866-222-R5-J1-PDC complex spheroids viability
Experiment: Anticancer human tumor 422866-222-R5-J1-PDC patient-derived pancreatic adenocarcinoma cell line growth inhibition [RAS]
Conditions: second compound 0.00949 µM; first compound 0.000949 µM; active compounds read low
Excerpt: RAS pathway inhibitors in Combinations in Complex Spheroids A high-throughput screen of multi-cell type tumor spheroids was designed to identify active combinations of RAS pathway inhibitors and targeted small molecules. Complex spheroids include a stromal component modeled by human endothelial cells (HUVEC) and fibroblasts modeled by human mesenchymal stem cells (MSCs). […] Compounds. […] If the clinical Cmax for an agent had not been determined, the highest concentration tested was 10 microM. […]
TEST_READOUT: viability, T/C

* CCc1c2c(nc3ccc(O)cc13)-c1cc3c(c(=O)n1C2)COC(=O)[C@]3(O)CC + CCn1c(-c2cc(N3CCN(C)CC3)cnc2C(C)OC)c2c3cc(ccc31)-c1csc(n1)CC(NC(=O)C1CC1C)C(=O)N1CCCC(N1)C(=O)OCC(C)(C)C2 | 18.9%
* CC1(C)CCC(Nc2ncc(C(F)(F)F)c(-c3c[nH]c4c(P(C)(C)=O)c(C#N)ccc34)n2)CN1 (centres undefined) + CCn1c(-c2cccnc2C(C)OC)c2c3cc(ccc31)N1CCOC(CC(NC(=O)C(C(C)C)N(C)C(=O)C3(F)CCN(C(=O)C#CC(C)(C)N(C)C)CC3)C(=O)N3CCCC(N3)C(=O)OCC(C)(C)C2)C1 | 24.1%
* CC1(C)CCC(Nc2ncc(C(F)(F)F)c(-c3c[nH]c4c(P(C)(C)=O)c(C#N)ccc34)n2)CN1 (centres undefined) + CCn1c(-c2cc(N3CCN(C)CC3)cnc2C(C)OC)c2c3cc(ccc31)-c1csc(n1)CC(NC(=O)C1CC1C)C(=O)N1CCCC(N1)C(=O)OCC(C)(C)C2 | 21.2%
* CCc1c2c(nc3ccc(O)cc13)-c1cc3c(c(=O)n1C2)COC(=O)[C@]3(O)CC + CCn1c(-c2cccnc2C(C)OC)c2c3cc(ccc31)N1CCOC(CC(NC(=O)C(C(C)C)N(C)C(=O)C3(F)CCN(C(=O)C#CC(C)(C)N(C)C)CC3)C(=O)N3CCCC(N3)C(=O)OCC(C)(C)C2)C1 | 22.1%

---

Listed below: viability, T/C values for each entry.
Test system: 422866-222-R5-J1-PDC complex spheroids viability
Assay: Anticancer human tumor 422866-222-R5-J1-PDC cell line growth inhibition [RAS];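 further: spheroids exposed to compounds for 7 days; 100% = DMSO vehicle control viability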
Details: second compound 0.03 µM; first compound 10 µM; active compounds read low
Source text: RAS pathway inhibitors in Combinations in Complex Spheroids A high-throughput screen of multi-cell type tumor spheroids was designed to identify active combinations of RAS pathway inhibitors and targeted small molecules. Complex spheroids include a stromal component modeled by human endothelial cells (HUVEC) and fibroblasts modeled by human mesenchymal stem cells (MSCs). […] Compounds. […] If the clinical Cmax for an agent had not been determined, the highest concentration tested was 10 microM. […]
TEST_READOUT: viability, T/C (%)

* CC(C)NCC(C(=O)N1CCN(c2ncnc3c2C(C)CC3O)CC1)c1ccc(Cl)cc1 (centres undefined) + CCn1c(-c2cc(N3CCN(C)CC3)cnc2C(C)OC)c2c3cc(ccc31)-c1csc(n1)CC(NC(=O)C1CC1C)C(=O)N1CCCC(N1)C(=O)OCC(C)(C)C2 | 13.8
* NC1c2ccccc2OC12CCN(c1cnc3c(N4CCCc5ncccc54)n[nH]c3n1)CC2 (centres undefined) + CCn1c(-c2cccnc2C(C)OC)c2c3cc(ccc31)N1CCOC(CC(NC(=O)C(C(C)C)N(C)C(=O)C3(F)CCN(C(=O)C#CC(C)(C)N(C)C)CC3)C(=O)N3CCCC(N3)C(=O)OCC(C)(C)C2)C1 | 13.6
* CC(C)NCC(C(=O)N1CCN(c2ncnc3c2C(C)CC3O)CC1)c1ccc(Cl)cc1 (centres undefined) + CCn1c(-c2cccnc2C(C)OC)c2c3cc(ccc31)N1CCOC(CC(NC(=O)C(C(C)C)N(C)C(=O)C3(F)CCN(C(=O)C#CC(C)(C)N(C)C)CC3)C(=O)N3CCCC(N3)C(=O)OCC(C)(C)C2)C1 | 16.2
* NC1c2ccccc2OC12CCN(c1cnc3c(N4CCCc5ncccc54)n[nH]c3n1)CC2 (centres undefined) + CCn1c(-c2cc(N3CCN(C)CC3)cnc2C(C)OC)c2c3cc(ccc31)-c1csc(n1)CC(NC(=O)C1CC1C)C(=O)N1CCCC(N1)C(=O)OCC(C)(C)C2 | 17.9

Data origin: PubChem BioAssay AID2060901
